experimental target: human SSTR4 (Homo sapiens)
Construct: expressed in transfected cells; host or cells: CHO-K1
method description: hSSTR4 cAMP assay (cAMP accumulation, LANCE Ultra cAMP kit, CHO-K1 human SSTR4 Gi cell line)
Type: cell-based
condition label: functional agonism, forskolin 10 μM stimulated CHO-K1 human SSTR4 Gi cells, 30 min at 25° C., at least duplicate, averaged; read-out: hSSTR4 EC50
metric: EC50

| compound | EC50 |
| --- | --- |
| COCCN1CCNC[C@H]1C(=O)NC(C)(C)c1ncc2c(C)cccn12 | 1.1 nM |

Which EC50 reading was recorded for the compound `Cc1cccn2c(C(C)(C)NC(=O)[C@@H]3CNCCN3CC3CCOCC3)ncc12` ?
0.16 nM

Which EC50 reading was recorded for the compound `Cc1cccn2c(C(C)(C)NC(=O)[C@@H]3CNCCN3CC(C)(C)F)ncc12` ?
1.2 nM

Which EC50 reading was recorded for the compound `Cc1ccc(CN2CCNC[C@H]2C(=O)NC(C)(C)c2ncc3c(C)cccn23)cn1` ?
0.79 nM

Which EC50 reading was recorded for the compound `Cc1cccn2c(C(C)(C)NC(=O)[C@@H]3CNCCN3CC(F)F)ncc12` ?
1.1 nM

Which EC50 reading was recorded for the compound `Cc1cccn2c(C(C)(C)NC(=O)[C@@H]3CN(Cc4ccn(C(C)C)n4)CCN3)ncc12` ?
4800 nM

Which EC50 reading was recorded for the compound `Cc1cccn2c(C(C)(C)NC(=O)[C@@H]3CNCCN3CC3CCC(F)(F)CC3)ncc12` ?
0.27 nM

Which EC50 reading was recorded for the compound `CCN1CCNC[C@H]1C(=O)NC(C)(C)c1n[nH]c2c(C)cccc12` ?
0.22 nM

###

experimental target: human SSTR4 (Homo sapiens, UniProt P31391)
Construct: expressed in transfected cells; host or cells: CHO-K1
Sequence (P31391 whole entry): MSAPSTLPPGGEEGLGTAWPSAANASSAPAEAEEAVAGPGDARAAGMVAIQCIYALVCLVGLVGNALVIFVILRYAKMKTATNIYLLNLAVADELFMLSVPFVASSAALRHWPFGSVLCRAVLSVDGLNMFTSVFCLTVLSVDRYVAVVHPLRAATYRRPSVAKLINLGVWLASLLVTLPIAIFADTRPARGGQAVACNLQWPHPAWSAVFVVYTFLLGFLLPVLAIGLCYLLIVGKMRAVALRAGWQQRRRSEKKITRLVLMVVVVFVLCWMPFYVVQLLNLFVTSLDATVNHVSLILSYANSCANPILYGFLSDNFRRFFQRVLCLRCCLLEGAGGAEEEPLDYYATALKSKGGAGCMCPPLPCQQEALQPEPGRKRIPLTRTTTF
method description: hSSTR4 cAMP assay (cAMP accumulation, LANCE Ultra cAMP kit, CHO-K1 human SSTR4 Gi cell line)
Format: cell-based
condition label: functional agonism, forskolin 10 μM stimulated CHO-K1 human SSTR4 Gi cells, 30 min at 25° C., at least duplicate, averaged; read-out: hSSTR4 EC50
metric: pEC50
Units for pEC50: none; it is -log10 of a concentration expressed in mol/L.

Example results:
| molecule | metric | meas value |
| --- | --- | --- |
| CC(C)(NC(=O)[C@@H]1CNCCN1CC1CC(F)(F)C1)c1ncc2c(Cl)cccn12 | pEC50 | 9.12 |
| COCC(C)(C)CN1CCNC[C@H]1C(=O)NC(C)(C)c1ncc2c(C)cccn12 | pEC50 | 8.85 |
| Cc1cccn2c(C(C)(C)NC(=O)[C@@H]3CNCCN3CC3(C)CCC(F)(F)CC3)ncc12 | pEC50 | 9.34 |
| Cc1cccn2c(C(C)(C)NC(=O)[C@@H]3CNCCN3Cc3cnc(C(F)(F)F)nc3)ncc12 | pEC50 | 9.22 |

Which pEC50 reading was recorded for the molecule `Cc1cccn2c(C(C)(C)NC(=O)[C@@H]3CN(C)CCN3CC(F)(F)F)ncc12` ?
8.85

Which pEC50 reading was recorded for the molecule `Cc1cccc2c(C(C)(C)NC(=O)[C@@H]3CNCCN3CC3COC3)n[nH]c12` ?
8.92

Which pEC50 reading was recorded for the molecule `Cc1cccn2c(C(C)(C)NC(=O)[C@@H]3CN(CC4CCC4)CCN3)ncc12` ?
6.23

Which pEC50 reading was recorded for the molecule `Cc1cccn2c(C(C)(C)NC(=O)[C@@H]3CN(CC(F)F)CCN3)ncc12` ?
5.09

Which pEC50 reading was recorded for the molecule Cc1cccn2c(C(C)(C)NC(=O)[C@@H]3CNCCN3C(C)C)ncc12 [SC-035] ?
9.46

Which pEC50 reading was recorded for the molecule Cc1cccn2c(C(C)(C)NC(=O)C3CNCCN3Cc3ncccn3)ncc12 (racemic) ?
7.89

Which pEC50 reading was recorded for the molecule `Cc1cccn2c(C(C)(C)NC(=O)[C@@H]3CNCCN3Cc3cnn(C)c3)ncc12` ?
8.74

Which pEC50 reading was recorded for the molecule `Cc1cccn2c(C(C)(C)NC(=O)[C@@H]3CNCCN3Cc3ccc(C(F)(F)F)cc3)ncc12` ?
9.77

Which pEC50 reading was recorded for the molecule Cc1cccn2c(C(C)(C)NC(=O)C3CNCCN3Cc3cccnn3)ncc12 (racemic) ?
8.13

Which pEC50 reading was recorded for the molecule `CN1CCNC[C@H]1C(=O)NC(C)(C)c1ncc2c(Cl)cccn12` ?
9.05

Which pEC50 reading was recorded for the molecule `Cc1cccn2c(C(C)(C)NC(=O)[C@@H]3CNCCN3C3CCC(F)(F)CC3)ncc12` ?
9.64

Which pEC50 reading was recorded for the molecule Cc1cccn2c(C(C)(C)NC(=O)C3CNCCN3Cc3ccccn3)ncc12 (racemic) ?
8.48

Which pEC50 reading was recorded for the molecule `Cc1cccn2c(C(C)(C)NC(=O)[C@@H]3CNCCN3Cc3ccnc(C(F)(F)F)c3)ncc12` ?
10.05

###

Recorded pEC50, one value per entry.
experimental target: human SSTR4 (Homo sapiens, UniProt P31391)
Construct: expressed in transfected cells; host or cells: CHO-K1
method description: hSSTR4 cAMP assay (cAMP accumulation, LANCE Ultra cAMP kit, CHO-K1 human SSTR4 Gi cell line)
Assay type: cell-based
condition label: functional agonism, forskolin 10 μM stimulated CHO-K1 human SSTR4 Gi cells, 30 min at 25° C., at least duplicate, averaged; read-out: hSSTR4 EC50
Units for pEC50: none; it is -log10 of a concentration expressed in mol/L.

Example results:
| item smiles | experimental target | pEC50 |
| --- | --- | --- |
| Cc1cccn2c(C(C)(C)NC(=O)[C@@H]3CN(C4COC4)CCN3)ncc12 | human SSTR4 (Homo sapiens, UniProt P31391) | 6.21 |
| Cc1cccn2c(C(C)(C)NC(=O)[C@@H]3CN(C(=O)CC4CCOCC4)CCN3)ncc12 | human SSTR4 (Homo sapiens, UniProt P31391) | 4.82 |
| Cc1cccn2c(C(C)(C)NC(=O)[C@@H]3CNCCN3CC3(C)COC3)ncc12 | human SSTR4 (Homo sapiens, UniProt P31391) | 7.92 |
| Cc1cccn2c(C(C)(C)NC(=O)[C@@H]3CNCCN3CC(C)(C)O)ncc12 | human SSTR4 (Homo sapiens, UniProt P31391) | 8.05 |
| Cc1cccn2c(C(C)(C)NC(=O)[C@@H]3CNCCN3CC3(C(F)(F)F)CC3)ncc12 | human SSTR4 (Homo sapiens, UniProt P31391) | 9.57 |

Which pEC50 reading was recorded for the compound `Cc1cccn2c(C(C)(C)NC(=O)[C@@H]3CN(C(C)C)CCN3)ncc12` ?
7.66

###

experimental target: human SSTR4 (Homo sapiens, UniProt P31391)
Construct: expressed in transfected cells; host or cells: CHO-K1
method description: hSSTR4 cAMP assay (cAMP accumulation, LANCE Ultra cAMP kit, CHO-K1 human SSTR4 Gi cell line)
Format: cell-based
condition label: functional agonism, forskolin 10 μM stimulated CHO-K1 human SSTR4 Gi cells, 30 min at 25° C., at least duplicate, averaged; read-out: hSSTR4 EC50
metric: pEC50
Units for pEC50: none; it is -log10 of a concentration expressed in mol/L.

Example results:
| compound | experimental target | metric | meas value |
| --- | --- | --- | --- |
| CN1CCNC[C@H]1C(=O)NC(C)(C)c1n[nH]c2c(F)cccc12 | human SSTR4 (Homo sapiens, UniProt P31391) | pEC50 | 8.55 |
| Cc1cccn2c(C(C)(C)NC(=O)[C@@H]3CN(C4CCOCC4)CCN3)ncc12 | human SSTR4 (Homo sapiens, UniProt P31391) | pEC50 | 5.52 |
| CC(=O)N1CCNCC1C(=O)NC(C)(C)c1ncc2c(C)cccn12 (racemic) | human SSTR4 (Homo sapiens, UniProt P31391) | pEC50 | 5.47 |
| Cc1cccn2c(C(C)(C)NC(=O)[C@@H]3CNCCN3CC(C)C)ncc12 | human SSTR4 (Homo sapiens, UniProt P31391) | pEC50 | 9.60 |

Turning now to a further record.
Which pEC50 reading was recorded for the compound `Cc1cccn2c(C(C)(C)NC(=O)[C@@H]3CN(Cc4ccccn4)CCN3)ncc12` ?
5.82

###

experimental target: human SSTR4 (Homo sapiens)
Construct: expressed in transfected cells; host or cells: CHO-K1
method description: hSSTR4 cAMP assay (cAMP accumulation, LANCE Ultra cAMP kit, CHO-K1 human SSTR4 Gi cell line)
Format: cell-based
condition label: functional agonism, forskolin 10 μM stimulated CHO-K1 human SSTR4 Gi cells, 30 min at 25° C., at least duplicate, averaged; read-out: hSSTR4 EC50
metric: log10(EC50) (log10 of the value in nM)
# values: log10(EC50), units nM

Example results:
| molecule | metric | meas value |
| --- | --- | --- |
| Cn1nc(C(C)(C)NC(=O)[C@@H]2CNCCN2CC(F)(F)F)c2ccccc21 | log10(EC50) | -0.08 |
| COCCN1CCNC[C@H]1C(=O)NC(C)(C)c1nn(C)c2ccccc12 | log10(EC50) | 0.77 |
| Cc1cccc2c(C(C)(C)NC(=O)[C@@H]3CNCCN3C)nn(C)c12 | log10(EC50) | 0.41 |
| Cc1cccn2c(C(C)(C)NC(=O)[C@@H]3CNCCN3Cc3ccnc(C4CC4)c3)ncc12 | log10(EC50) | -1.05 |

Which log10(EC50) reading was recorded for the molecule Cc1cccn2c(C(C)(C)NC(=O)C3CNCCN3C(=O)c3cnn(C)c3)ncc12 (racemic) ?
3.54

Which log10(EC50) reading was recorded for the molecule Cc1cccn2c(C(C)(C)NC(=O)C3CNCCN3Cc3ccncn3)ncc12 (racemic) ?
0.46

Which log10(EC50) reading was recorded for the molecule `Cc1cccn2c(C(C)(C)NC(=O)[C@@H]3CN(Cc4ccncc4)CCN3)ncc12` ?
2.11

Which log10(EC50) reading was recorded for the molecule `Cn1cc(CN2CCNC[C@H]2C(=O)NC(C)(C)c2ncc3c(C(F)(F)F)cccn23)cn1` ?
1.97

Which log10(EC50) reading was recorded for the molecule `Cc1cccc2c(C(C)(C)NC(=O)[C@@H]3CNCCN3C)noc12` ?
0.67

Which log10(EC50) reading was recorded for the molecule `CC(C)(NC(=O)[C@@H]1CNCCN1CC1CC(F)(F)C1)c1ncc2c(C(F)(F)F)cccn12` ?
1.41

Which log10(EC50) reading was recorded for the molecule `Cc1cccn2c(C(C)(C)NC(=O)[C@@H]3CNCCN3CC3CCC3)ncc12` ?
-0.42

Which log10(EC50) reading was recorded for the molecule `Cc1cccn2c(C(C)(C)NC(=O)[C@@H]3CNCCN3Cc3cccc(F)c3)ncc12` ?
-0.96

Which log10(EC50) reading was recorded for the molecule `COc1cccn2c(C(C)(C)NC(=O)[C@@H]3CNCCN3C)ncc12` ?
0.58

Which log10(EC50) reading was recorded for the molecule Cc1cccn2c(C(C)(C)NC(=O)[C@@H]3CNCCN3Cc3cnccn3)ncc12 (racemic) ?
0.34

Which log10(EC50) reading was recorded for the molecule `Cc1cccn2c(C(C)(C)NC(=O)[C@@H]3CN(C(=O)C4CCOCC4)CCN3)ncc12` ?
3.81

Which log10(EC50) reading was recorded for the molecule `Cc1cc(CN2CCNC[C@H]2C(=O)NC(C)(C)c2ncc3c(C)cccn23)ccn1` ?
-1.22

Which log10(EC50) reading was recorded for the molecule `Cc1cccn2c(C(C)(C)NC(=O)[C@@H]3CN(Cc4ccnn4C)CCN3)ncc12` ?
3.08

Which log10(EC50) reading was recorded for the molecule `CCCN1CCN[C@H](C(=O)NC(C)(C)c2ncc3c(C)cccn23)C1` ?
1.91
